Data origin: paper PMC4552634

# Tested on: P. falciparum stage V gametocytes
# Design: BacTiter-Glo ATP luminescence viability of purified stage V gametocytes in 384-well plates, per cent inhibition versus DMSO
# Condition Context: 48 h, 5 µM; inhibitor
In all, about 13,000 compounds went through this assay and about 3,200 (25%) showed an effect of 50% or more. The list shows a part of the results.
The label depends only on % Inhibition: MET if it is at least 30%, NOT MET if it is smaller.

Is % Inhibition for CN(C)c1ccc(-c2ccc(C(=O)NC3CCN(Cc4ccccc4F)CC3)s2)cc1 [TCMDC-134368] at or above 30%?
NOT MET

Note, next up: Cc1cc(CN2CC[C@H](NC(=O)c3ccc(Cl)c(Cl)c3)C2)ccc1OCCCN(C)C [TCMDC-140278]
NOT MET

Note, next up: O=C(N[C@H]1CCN(Cc2ccc(OCCN3CCCC3)c(Cl)c2)C1)c1ccc(Cl)c(Cl)c1 [TCMDC-140273]
NOT MET

Note, next up: CCCCCCNC(=O)C1Cc2c([nH]c3ccc(Br)cc23)C2(CCN(CCc3ccccc3)CC2)N1 (centres unmarked) [TCMDC-141182]
NOT MET

Note, next up: Cc1cccc(Oc2cccc3[nH]nc(N)c23)c1 [TCMDC-131935]
NOT MET

Note, next up: CC(C)CCNC(=O)C1Cc2c([nH]c3cc(Br)ccc23)C2(CCN(CCc3ccccc3)CC2)N1 (centres unmarked) [TCMDC-141259]
NOT MET

Note, next up: CN(C)c1ccc(-c2ccc(C(=O)NC3CCN(Cc4ccccc4)CC3)s2)cc1 [TCMDC-134367]
MET

Note, next up: CCCNC(=O)C1Cc2c([nH]c3cc(Br)ccc23)C2(CCN(CCc3ccccc3)CC2)N1 (centres unmarked) [TCMDC-141260]
NOT MET

Note, next up: CSc1ccc(CN2CCC(NC(=O)c3ccc(-c4ccc(N(C)C)cc4)s3)CC2)cc1 [TCMDC-134342]
NOT MET

Note, next up: COc1cccc(-c2ccc(C(=O)NC3CCN(Cc4ccc(N(C)C)cc4)CC3)s2)c1 [TCMDC-134330]
MET

Note, next up: COC(=O)C(c1ccc(NC(=O)[C@H](CC(C)C)NC(=O)OC(C)(C)C)cc1)c1ccc(NC(=O)[C@H](CC(C)C)NC(=O)OC(C)(C)C)cc1 [TCMDC-131874]
NOT MET

Note, next up: CC(C)CCNC(=O)C1Cc2c([nH]c3cc(Br)ccc23)C2(CCN(Cc3ccccc3)CC2)N1 (centres unmarked) [TCMDC-141258]
MET

Note, next up: COc1ccccc1CN1CCC(NC(=O)c2ccc(-c3cccc(Cl)c3)s2)CC1 [TCMDC-134356]
NOT MET

Note, next up: COc1cccc(OC(C)(C)c2nc(N[C@@H](C)c3ccccc3)c3cn[nH]c3n2)c1 [TCMDC-136619]
NOT MET

Note, next up: CN(C)c1ccc(CN2CCC(NC(=O)c3ccc(-c4cccc(Cl)c4)s3)CC2)cc1 [TCMDC-134329]
NOT MET

Note, next up: CN(C)c1ccc(CN2CCC(NC(=O)c3ccc(-c4ccccc4Cl)s3)CC2)cc1 [TCMDC-134328]
NOT MET

Note, next up: COc1ccc2ncc(F)c([C@H](O)CN3CCC(NCc4ccc5c(c4)NC(=O)CS5)CC3)c2c1 [TCMDC-135827]
NOT MET

Note, next up: C[C@H](Nc1nc(C(Oc2ccccc2)c2ccccc2)nc2[nH]ncc12)c1ccccc1 (some centres unmarked) [TCMDC-136553]
MET

Note, next up: O=C(Nc1ccc(CN2CCOCC2)cc1)c1ccc(-c2cc(Cl)ccc2Cl)o1 [TCMDC-125390]
NOT MET

Note, next up: CNC(=O)C1Cc2c([nH]c3ccc(Br)cc23)C2(CCN(CCc3ccccc3)CC2)N1 (centres unmarked) [TCMDC-141185]
NOT MET

Note, next up: CC[C@H](NC(=O)c1ccc(NC(=O)OC(C)(C)C)cc1)C(=O)N[C@@H](CO)C(=O)NCCCCc1ccccc1 [TCMDC-137189]
NOT MET

Note, next up: O=C(/C=C/c1ccc(Cl)c(Cl)c1)N1CCC(CN2CCC(Cc3cc4ccccc4[nH]3)CC2)CC1 [TCMDC-140231]
NOT MET

Note, next up: Cn1c(CN2CCC(N3CCc4cc(NC(=O)c5ccco5)ccc43)C2)cc2ccccc21 (centres unmarked) [TCMDC-135073]
MET

Note, next up: C=CCc1ccc(C[C@H](NC(=O)OC(C)(C)C)C(=O)OC)cc1 [TCMDC-138140]
MET

Note, next up: COc1ccc2ncc(F)c(CCN3CCC(NCc4cnc5c(c4)NC(=O)CS5)CC3)c2c1 [TCMDC-134490]
MET

Note, next up: COc1ccc2ncc(F)c([C@H](O)CN3CCC(NCc4cc5c(cn4)OCCO5)CC3)c2c1 [TCMDC-135296]
NOT MET

Note, next up: O=C(Nc1ccc(CN2CCOCC2)cc1)c1ccc(-c2ccc(Cl)cc2)o1 [TCMDC-124455]
MET

Note, next up: CC(C)(C)c1ccc(NC(=O)c2ccc(CN3CCCN(Cc4ccc(F)cc4)CC3)cc2)cc1 [TCMDC-136435]
NOT MET

Note, next up: CN1CCC[C@H]1COc1ccc(CN2CC[C@H](NC(=O)c3ccc(Cl)c(Cl)c3)C2)cc1Br [TCMDC-140285]
MET

Note, next up: CC(=O)Nc1ccc(CN2CCC(NC(=O)c3ccc(-c4ccc(N(C)C)cc4)s3)CC2)cc1 [TCMDC-134336]
MET

Note, next up: CC(C)CCNC(=O)C1Cc2c([nH]c3cc(Cl)ccc23)C2(CCN(CCc3ccccc3)CC2)N1 (centres unmarked) [TCMDC-141294]
NOT MET

###

# Test system: P. falciparum stage V gametocytes
# Parameters: BacTiter-Glo ATP luminescence viability of purified stage V gametocytes in 384-well plates, per cent inhibition versus DMSO
# Condition Context: 48 h, 5 µM; inhibitor
Among all 13,000 compounds or so, about 3,200 (25%) showed an effect of 50% or more. The list shows a part of the results.
Readout: % Inhibition (%)
The figure you give is taken to be in %; do not add the unit.

GET /values?readout=% Inhibition&item= CCN(CC)CCN(Cc1ccc(-c2ccc(C(F)(F)F)cc2)cc1)C(=O)Cn1c(CCc2ccc(F)c(F)c2)cc(=O)c2ccccc21
39.3

Note, next up: CCN(CC)CCN(Cc1ccc(-c2ccc(C(F)(F)F)cc2)cc1)C(=O)Cn1c(CCc2cc(F)c(F)c(F)c2)nc(=O)c2ccccc21
66.72

Note, next up: CCN(CC)CCN(Cc1ccc(-c2ccc(C(F)(F)F)cc2)cc1)C(=O)Cn1c(CCc2cccc(C#N)c2)nc(=O)c2ccccc21
54.63

###

# System: P. falciparum stage V gametocytes
# Set-up: BacTiter-Glo ATP luminescence viability of purified stage V gametocytes in 384-well plates, per cent inhibition versus DMSO
# Condition Context: 48 h, 5 µM; inhibitor
The campaign covered roughly 13,000 compounds. About 3,200 (25%) showed an effect of 50% or more. The list shows a part of the results.
For each record, write down the corresponding % Inhibition.
The figure you give is taken to be in %; do not add the unit.

GET /values?readout=% Inhibition&item= CC(C)CC(C)NC(=O)C1Cc2c([nH]c3cc(Cl)ccc23)C2(CCN(CCc3ccccc3)CC2)N1 (stereo not drawn)
48.04

Note, next up: COc1ccc(CNC(=O)c2cnc3c(O)cccc3c2Nc2cccc(NC(=O)c3ccc(Cl)c(Cl)c3)c2)cc1.O=C(O)C(F)(F)F
97.23

Note, next up: CC(C)(CNCCOc1ccc(Cl)cc1)c1nc(-c2ccc(Cl)c(O)c2)c(-c2ccnc(N)n2)[nH]1
36.73

Note, next up: CN(c1cc(NC(=O)c2ccc(F)cc2)ccn1)C1CCN(Cc2cccc(O)c2)CC1
-19

Note, next up: Cn1cc(Br)c(-c2cccc(Nc3ccnc4cc(-c5nccs5)ccc34)c2)n1
50.96

Note, next up: CC(=O)Nc1ncc(C(=O)Nc2cccc(-c3ccc(-c4nc5c(C)cccc5[nH]4)cc3)c2)s1
10.82

Note, next up: Fc1ccc2[nH]c(-c3cccc(-c4cccc(CNCCN5CCNCC5)c4)c3)nc2c1
97.72

Note, next up: COc1ccc(CNC(=O)c2cnc3c(O)cccc3c2Nc2cccc(NC(=O)c3ccc(Cl)c([N+](=O)[O-])c3)c2)cc1.O=C(O)C(F)(F)F
35.62

Note, next up: CC(Nc1ccnc2cc(Cl)ccc12)c1ccc(S(N)(=O)=O)cc1 (stereo not drawn)
16.92

Note, next up: CC[C@H]1CN2CC[C@H]1C[C@H]2[C@H](O)c1cc(-c2cccc(F)c2)nc2ccc(OC)cc12
63.72

Note, next up: CC[C@H]1CN2CC[C@H]1C[C@H]2[C@H](O)c1cc(-c2cccc(C)c2)nc2ccc(OC)cc12
44.26

Note, next up: Cn1c(C2CC3CCC(C2)N3CC2CCC(NC(=O)/C=C/c3ccc(Cl)c(Cl)c3)CC2)nc2ccccc21 (stereo not drawn)
-2.342

Note, next up: Oc1cccc(Nc2ccnc3cc(-c4ccncc4)ccc23)c1
8.476

Note, next up: O=C(Nc1ccc(Br)cc1)c1cc(Br)ccc1NS(=O)(=O)c1ccc(C(F)(F)F)cc1
29.13

Note, next up: CC(C)(C)c1ccc(C(=O)Nc2cccc(Nc3c(C(=O)NCc4cccc(C(F)(F)F)c4)cnc4c(O)cccc34)c2)cc1.O=C(O)C(F)(F)F
57.39

Note, next up: COc1cc(NC(=O)Nc2ccc(Br)cc2C(=O)Nc2ccc(Br)cc2)cc(OC)c1OC
85.99

Note, next up: COc1ccc(CNC(=O)c2cnc3cc(-c4c(C)noc4C)ccc3c2Nc2ccccc2C(C)(C)C)cc1.Cl
-23.94

Note, next up: CO/C(=C\C=C\c1cc2cc(Cl)c(Cl)cc2[nH]1)C(=O)Nc1ccc(NCCN(C)C)nc1
-22.07

Note, next up: Cn1cccc1CCNCc1ccc(-c2cccc(-c3nc4cc(F)ccc4[nH]3)c2)cc1.O=C(O)C(F)(F)F
7.89

Note, next up: Nc1nc(Nc2cccc(Cl)c2)ncc1C(=O)NCc1ccncc1
0.6434

Note, next up: C=Cc1sc(CNCCCNc2cc(=O)c3ccccc3[nH]2)c(C)c1Br
-9.308

Note, next up: CC(C)CCNC(=O)c1cc(C(=O)c2cc(F)ccc2O)cn(CCC(C)C)c1=O
0.8137

Note, next up: COc1ccc(CNC(=O)c2cnc3c(O)cccc3c2Nc2cccc(NC(=O)c3ccc(-c4ccccc4)cc3)c2)cc1.O=C(O)C(F)(F)F
77.42

Note, next up: COc1ccc(NS(=O)(=O)c2ccc(Oc3nc(C)nc4sc5c(c34)CCCC5)cc2)cc1
4.693

Note, next up: COc1ccc(NC(=O)c2c(NC(=O)c3cccs3)sc3c2CCCC3)cc1
-21.48

Note, next up: O=C1CCCN1CCCNCc1ccc(-c2cccc(-c3nc4ccc(F)cc4[nH]3)c2)cc1
-14.96

Note, next up: Cn1ccc(-c2cccc(Nc3ccnc4cc(-c5nccs5)ccc34)c2)n1
105.5

Note, next up: NS(=O)(=O)c1ccc(CNC(=O)c2cnc3c(O)cccc3c2Nc2cccc(NC(=O)c3ccc(Cl)c(Cl)c3)c2)cc1.O=C(O)C(F)(F)F
34.02

Note, next up: O=C(Cc1ccc(NC(=O)c2ccc(O)c(-c3ccc(Cl)c(Cl)c3)c2)cc1)NCc1cccc(C(F)(F)F)c1
-7.918

Note, next up: Brc1ccc(Nc2ccnc3cc(-c4nccs4)ccc23)cc1Oc1ccnc2cc(-c3nccs3)ccc12
0.7997
